Recorded values, source patent US20210188980A1.

Kindly state Kd for each of the entries shown.
# target: T1, human PD-1-His protein (human, UniProt Q15116 25-167, limits assumed)
# T1 construct: also called huPD-1; not shown: His tag
# T1 sequence (Q15116 25-167 limits assumed): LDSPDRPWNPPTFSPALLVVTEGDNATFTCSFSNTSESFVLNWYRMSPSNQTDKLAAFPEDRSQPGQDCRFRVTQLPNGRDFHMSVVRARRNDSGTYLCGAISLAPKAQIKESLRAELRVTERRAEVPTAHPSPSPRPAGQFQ
# assay.info: SPR Biacore, Ab captured, huPD-1-His analyte
Numbers only here, please. The scale is nM.

**Query** Need Kd, item HumAb709-2 (antibody, human IgG1, kappa, L234A L235A, V domains shown, humanized mAb709) VH: EVQLVESGGGLVQPGGSLRLSCAASGFTFSFYTMSWVRQAPGKGLEWVATISGGGRDTYYPDSVKGRFTISRDNAKNSLYLQMNSLRAEDTAVYYCAGQGGNYLFAYWGQGTLVTVSS VL: DIQMTQSPSSLSASVGDRVTITCKASQDVNTVVAWYQQKPGKAPKLLIYWASTRHTGVPSRFSGSGSGTDYTLTISSLQPEDFATYYCQQHYTTPYTFGGGTKVEIKR
**Result** 0.684

**Query** Now try HumAb709-7 (antibody, human IgG1, kappa, L234A L235A, V domains shown, humanized mAb709) VH: EVQLVESGGGLVQPGGSLRLSCAASGFTFSFYTMSWVRQAPGKGLEWVATISGGGRDTYYPDSVKGRFTISRDNAKNSLYLQMNSLRAEDTAVYYCARQGGNYLFAYWGQGTLVTVSS VL: DIVMTQSPSSLSASVGDRVTITCKASQDVNTVVAWYQQKPGKAPKVLISWASTRHTGVPSRFSGSGSGTDYTLTISSLQPEDFATYYCQQHYTTPYTFGGGTKVEIKR .
**Result** 2.36

**Query** Similarly, HumAb709-8 (antibody, human IgG1, kappa, L234A L235A, V domains shown, humanized mAb709; also called HurnAb709-8) VH: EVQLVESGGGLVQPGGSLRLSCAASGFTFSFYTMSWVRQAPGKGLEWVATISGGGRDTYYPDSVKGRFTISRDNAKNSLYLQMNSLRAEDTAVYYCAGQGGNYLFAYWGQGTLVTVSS VL: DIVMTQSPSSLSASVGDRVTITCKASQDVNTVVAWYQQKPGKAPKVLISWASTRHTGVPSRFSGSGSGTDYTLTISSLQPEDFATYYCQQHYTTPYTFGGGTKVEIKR ?
**Result** 0.368

**Query** Moving on to HumAb709-10 (antibody, human IgG1, kappa, L234A L235A, V domains shown, humanized mAb709) VH: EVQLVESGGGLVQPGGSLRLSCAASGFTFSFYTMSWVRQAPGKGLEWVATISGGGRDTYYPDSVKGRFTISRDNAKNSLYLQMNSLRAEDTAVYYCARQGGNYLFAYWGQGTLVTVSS VL: DIVMTQSPSSLSASVGDRVTITCKASQDVNTVVAWYQQKPGKAPKVLISWASTRHTGVPSRFTGSGSGTDYTLTISSLQPEDFATYYCQQHYTTPYTFGGGTKVEIKR
**Result** 2.04

**Query** And the next one, HumAb709-1 (antibody, human IgG1, kappa, L234A L235A, V domains shown, humanized mAb709) VH: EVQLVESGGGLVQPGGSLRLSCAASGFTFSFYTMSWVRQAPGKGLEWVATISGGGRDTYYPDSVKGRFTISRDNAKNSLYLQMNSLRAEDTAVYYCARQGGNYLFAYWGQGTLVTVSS VL: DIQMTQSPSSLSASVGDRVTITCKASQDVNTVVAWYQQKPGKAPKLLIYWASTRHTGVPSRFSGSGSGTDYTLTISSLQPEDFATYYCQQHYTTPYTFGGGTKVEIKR ?
**Result** 11

**Query** Then what about the binder mAb709c (antibody, V domains shown, also called HumAb709c) VH: EVKLVESGGGLVKPGGSLKLSCAASGFTFSFYTMSWVRQTPEKRLEWVATISGGGRDTYYPDSVKGRFTISRDNAKNTLYLHMSSLRSEDTALYYCAGQGGNYLFAYWGQGTLVTVSA VL: DIVMTQSHKFMSTSVGDSVTITCKASQDVNTVVAWYQQKPGQSLKVLISWASTRHTGVPARFTGSGSGTDYTLTISSVQAEDLALYYCQQHYTTPYTFGGGTQLEIK ?
**Result** 0.567
